- experimental-system: hTAAR1 (Homo sapiens)
- Construct: expressed in transfected cells; host or cells: HEK-293T (ATCC)
- Sequence (Q96RJ0 whole entry): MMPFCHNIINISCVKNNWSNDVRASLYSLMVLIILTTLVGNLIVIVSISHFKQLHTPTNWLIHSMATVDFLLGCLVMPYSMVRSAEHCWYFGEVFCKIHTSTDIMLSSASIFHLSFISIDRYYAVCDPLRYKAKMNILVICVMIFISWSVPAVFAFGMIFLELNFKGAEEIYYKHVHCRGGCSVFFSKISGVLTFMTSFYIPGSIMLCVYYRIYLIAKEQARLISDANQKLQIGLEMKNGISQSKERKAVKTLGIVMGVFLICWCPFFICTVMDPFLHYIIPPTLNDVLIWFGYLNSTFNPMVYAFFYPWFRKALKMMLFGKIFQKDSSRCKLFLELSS
- procedure-summary: Functional activity at hTAAR1, cAMP BRET biosensor in HEK-293T cells
- Assay type: cell-based
- condition-info: HEK-293T, read-out: hTAAR1 Activity
Consider the following partition of reported Emax at 10 µM into named classes: L (below 40%), M (40% to below 80%), H (80% or more)

{"columns": ["compound-structure", "experimental-system", "label-class"],
 "data": [
  ["COc1ccccc1N1CCN(C(=N)N)CC1.Cl", "hTAAR1 (Homo sapiens)", "M"],
  ["COc1cccc(N2CCN(C(=N)N)CC2)c1.Cl", "hTAAR1 (Homo sapiens)", "L"],
  ["Cc1ccccc1N1CCN(C(=N)N)CC1.Cl", "hTAAR1 (Homo sapiens)", "H"],
  ["Cl.N=C(N)N1CCN(c2ccccc2)CC1", "hTAAR1 (Homo sapiens)", "M"],
  ["Cl.N=C(N)N1CCN(c2ccccc2Cl)CC1", "hTAAR1 (Homo sapiens)", "H"]
]}

input: Please indicate the class for Cl.N=C(N)N1CCN(c2ccc(Cl)c(Cl)c2)CC1 based on its Emax at 10 µM.
output: M

input: Please indicate the class for Cl.N=C(N)N1CCN(c2ccccn2)CC1 based on its Emax at 10 µM.
output: L

input: Please indicate the class for Cl.N=C(N)N1CCN(c2cccc(Cl)c2)CC1 based on its Emax at 10 µM.
output: L

Ref: paper PMC7697893
